Give measured protein stability index for each item. Keep answers brief.
procedure summary: protein stability index of a GFP-peptide fusion (GPS, HEK-293T) (PSI 1-6); higher = more stable;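 further: 24-mer peptide tiles fused after GFP, lentivirally expressed, FACS-sorted into six equal bins by GFP/DsRed ratio, decoded by Illumina sequencing, PSI is the read-weighted mean bin number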
condition description: treatment: MLN4924 1 uM, 8 h; c terminus: native
Please respond with just the number, no unit label.

[ask] So what does the record say about protein stability index for NCLPKHLLHSVNQRFGSNNTSGS [KLHDC2] ?
[reply] 2.99

[ask] Similarly, SALATQYMHCVNHAKQSMLEKGG [CHCHD3] ?
[reply] 3.02

[ask] Similarly, LNGASVLPHKSIGESVPEPRIIM [GMPPB] ?
[reply] 3.71

[ask] Similarly, AKIEVEKLKAIRLRHDLPEYNSL [RAD54B] ?
[reply] 3.81

[ask] Similarly, DPLNICVFILLLVFIVVKCFTSE [RTP4] ?
[reply] 2.89
